Target: ALK4 (ACVR1B) (Homo sapiens (Human), UniProt P36896)
Sequence (P36896 24-505): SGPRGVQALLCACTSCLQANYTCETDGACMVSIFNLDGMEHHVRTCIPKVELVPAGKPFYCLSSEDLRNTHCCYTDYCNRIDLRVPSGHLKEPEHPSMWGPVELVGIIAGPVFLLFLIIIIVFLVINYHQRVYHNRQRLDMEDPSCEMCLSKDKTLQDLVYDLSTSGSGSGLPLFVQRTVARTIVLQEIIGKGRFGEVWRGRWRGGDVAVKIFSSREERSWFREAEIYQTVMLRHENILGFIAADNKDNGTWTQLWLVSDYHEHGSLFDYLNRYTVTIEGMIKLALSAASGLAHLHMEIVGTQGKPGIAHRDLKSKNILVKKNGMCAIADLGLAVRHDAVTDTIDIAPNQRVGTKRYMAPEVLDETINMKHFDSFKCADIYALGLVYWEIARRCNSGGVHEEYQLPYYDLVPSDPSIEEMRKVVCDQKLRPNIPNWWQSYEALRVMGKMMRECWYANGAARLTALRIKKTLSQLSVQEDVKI
pIC50: −log10 of the molar value.
ASSAY_METRIC: pIC50

compound="CC(O)CNC(=O)c1c[nH]nc1Nc1cc(-c2cc(Cl)ccc2F)ncc1C(C)C (single isomer, unassigned) [21a]" assay_metric=pIC50 result="< 3.00"

====

Test: Plasma and brain concentrations at 0.5 and 1 h in mice
Format: in vivo
Details: male, mouse, brain, 2 mg/kg; IV, 1 h; read-out: Brain Concentration
concentration at 1 h reference
ASSAY_METRIC: concentration at 1 h

compound=CC(C)c1cnc(-c2cc(Cl)ccc2F)cc1Nc1ccncc1C(=O)NCCN assay_metric="concentration at 1 h" result="3 nM"
compound="C[C@H](O)CNC(=O)c1cnccc1Nc1cc(-c2cc(Cl)ccc2F)ncc1N(C)C (single isomer, unassigned) [16a]" assay_metric="concentration at 1 h" result="19 nM"
compound=CC(C)c1cnc(-c2cc(Cl)ccc2F)cc1Nc1ccncc1C(=O)NC(CO)CO assay_metric="concentration at 1 h" result="5 nM"

====

Recorded AUC(0-t), one value per entry.
Assay: Pharmacokinetics and bioavailability in male mice after a single dose
Type: in vivo
Conditions: mouse, plasma, intravenous, 2 mg/kg
ASSAY_METRIC: AUC(0-t) (µM·h)

molecule=CC(C)c1cnc(-c2cc(Cl)ccc2F)cc1Nc1ccncc1C(=O)NCCN readout_number=1.19
molecule=CC(=O)NCCNC(=O)c1cnccc1Nc1cc(-c2cc(Cl)ccc2F)ncc1C(C)C readout_number=1.57
molecule="COc1cnc(-c2cc(Cl)ccc2F)cc1Nc1ccncc1C(=O)NC[C@H](C)O (single isomer, unassigned) [13a]" readout_number=1.56
molecule=C=C(C)c1cnc(-c2cc(Cl)ccc2F)cc1Nc1ccncc1C(=O)NC(C)(C)CO readout_number=0.709
molecule="C[C@H](O)CNC(=O)c1cnccc1Nc1cc(-c2cc(Cl)ccc2F)ncc1N(C)C (single isomer, unassigned) [16a]" readout_number=4.41
molecule=C=C(C)c1cnc(-c2cc(Cl)ccc2F)cc1Nc1ccncc1C(=O)NCCO readout_number=1.76
molecule=CC(C)c1cnc(-c2cc(Cl)ccc2F)cc1Nc1ccncc1C(=O)NC(CO)CO readout_number=3.77
molecule="CC(C)c1cnc(-c2cc(Cl)ccc2F)cc1Nc1ncncc1C(=O)NC[C@H](C)O (single isomer, unassigned) [12a]" readout_number=3.69

====

Assay: Pharmacokinetics and bioavailability in male mice after a single dose
Format: in vivo
Settings: mouse, plasma, oral, 10 mg/kg
Assign class by AUC(0-t): not lower than 6 µM·h means Condition met; lower than 6 µM·h means Condition not met.

molecule="C=C(C)c1cnc(-c2cc(Cl)ccc2F)cc1Nc1ccncc1C(=O)NC[C@H](C)O (single isomer, unassigned)" assigned_category="Condition met"
molecule="COc1cnc(-c2cc(Cl)ccc2F)cc1Nc1ccncc1C(=O)NC[C@H](C)O (single isomer, unassigned) [13a]" assigned_category="Condition not met"
molecule=C=C(C)c1cnc(-c2cc(Cl)ccc2F)cc1Nc1ccncc1C(=O)NCCO assigned_category="Condition not met"
molecule="C[C@H](O)CNC(=O)c1cnccc1Nc1cc(-c2cc(Cl)ccc2F)ncc1N(C)C (single isomer, unassigned) [16a]" assigned_category="Condition met"
molecule="C=C(C)c1c(Nc2ccncc2C(=O)NC[C@H](C)O)cc(-c2cc(Cl)ccc2F)nc1N (single isomer, unassigned) [23a]" assigned_category="Condition not met"
molecule=CC(=O)NCCNC(=O)c1cnccc1Nc1cc(-c2cc(Cl)ccc2F)ncc1C(C)C assigned_category="Condition not met"
molecule="CCc1cnc(-c2cc(Cl)ccc2F)cc1Nc1ccncc1C(=O)NC[C@H](C)O (single isomer, unassigned) [11a]" assigned_category="Condition met"
molecule=CC(C)c1cnc(-c2cc(Cl)ccc2F)cc1Nc1ccncc1C(=O)NCCN assigned_category="Condition not met"
molecule=C=C(C)c1cnc(-c2cc(Cl)ccc2F)cc1Nc1ccncc1C(=O)NC(C)(C)CO assigned_category="Condition not met"
molecule=CC(C)c1cnc(-c2cc(Cl)ccc2F)cc1Nc1ccncc1C(=O)NC(CO)CO assigned_category="Condition met"
molecule="CC(C)c1cnc(-c2cc(Cl)ccc2F)cc1Nc1ncncc1C(=O)NC[C@H](C)O (single isomer, unassigned) [12a]" assigned_category="Condition met"
molecule="CC(C)c1cnc(-c2cc(Cl)ccc2F)cc1Nc1ccncc1C(=O)NC[C@H](C)O (single isomer, unassigned)" assigned_category="Condition not met"

Reference for the values: patent US10030004B2
